- experimental.conditions: 338.15 K; 101 kPa; Liquid
Rule: viscosity under 3 mPa·s gives FALSE, otherwise TRUE.

Take a look at these entries with their results.
compound | assigned.label
CCCCn1cc[n+](C)c1.N#C[S-] [1-butyl-3-methylimidazolium thiocyanate] | TRUE
CCCCCCCCO [octan-1-ol] | FALSE
CCCCCCCO [heptan-1-ol] | FALSE

Now, please, on to the next compound.
## Input Exam item: decide whether the reported viscosity for CCCCCCCCCO [nonan-1-ol] is at least 3 mPa·s.
## Output FALSE

====

- experimental.conditions: 328.15 K; 101 kPa; Liquid
compounds and their reported mass density
Entry rule: numbers only, all in kg/m3.

Here is how some compounds turned out for mass density.
compound | unit.tag | mass density
CCCCCCCO | kg/m3 | 797.22
CCCCCCCCCO | kg/m3 | 803.29

// recorded mass density for CCCCn1cc[n+](C)c1.N#C[S-] [1-butyl-3-methylimidazolium thiocyanate] : 1052.19

// recorded mass density for CCCCCCCCCCO : 805.61

// recorded mass density for CCCCCCCCO : 800.39
